# target-or-test-system: T1, EsCas13d, nuclease-dead (Eubacterium siraeum, UniProt B0MS50, R295A;H300A;R849A;H854A)
# T1 sequence: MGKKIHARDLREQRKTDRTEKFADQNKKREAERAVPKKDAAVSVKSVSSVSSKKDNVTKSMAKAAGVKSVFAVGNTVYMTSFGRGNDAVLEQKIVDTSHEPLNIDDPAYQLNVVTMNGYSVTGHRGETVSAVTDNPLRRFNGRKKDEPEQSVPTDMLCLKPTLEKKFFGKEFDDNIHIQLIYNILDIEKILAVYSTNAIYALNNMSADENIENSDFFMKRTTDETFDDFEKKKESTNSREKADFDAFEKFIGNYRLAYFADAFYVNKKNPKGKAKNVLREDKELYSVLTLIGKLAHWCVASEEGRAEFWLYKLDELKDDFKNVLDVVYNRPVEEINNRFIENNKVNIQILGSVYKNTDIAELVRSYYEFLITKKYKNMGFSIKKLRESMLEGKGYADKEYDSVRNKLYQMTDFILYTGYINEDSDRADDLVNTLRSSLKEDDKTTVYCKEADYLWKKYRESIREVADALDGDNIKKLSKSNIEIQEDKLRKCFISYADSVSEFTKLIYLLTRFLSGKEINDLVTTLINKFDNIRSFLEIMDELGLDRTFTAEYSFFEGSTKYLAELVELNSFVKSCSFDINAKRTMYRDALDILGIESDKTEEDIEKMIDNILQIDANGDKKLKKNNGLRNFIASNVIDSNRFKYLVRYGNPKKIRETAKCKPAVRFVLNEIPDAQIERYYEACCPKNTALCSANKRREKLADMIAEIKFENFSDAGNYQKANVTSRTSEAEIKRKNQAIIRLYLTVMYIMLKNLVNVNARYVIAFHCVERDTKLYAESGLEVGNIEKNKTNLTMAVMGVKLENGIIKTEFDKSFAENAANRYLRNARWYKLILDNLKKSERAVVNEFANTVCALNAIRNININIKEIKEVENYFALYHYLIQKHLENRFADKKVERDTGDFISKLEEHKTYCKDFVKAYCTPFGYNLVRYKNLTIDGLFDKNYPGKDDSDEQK
# assay-comment: crRNA (strand 1, pre-loaded); Mg2+; 40 mM Tris-HCl pH 7.5, 150 mM NaCl, 6 mM MgCl2, 1 mM DTT, 0.1% Tween-20, 0.2 mg/ml BSA; 25 C; 10 min per concentration, then washed
# test-parameters: tags: His6-TwinStrep-SUMO cleaved; N-terminal SNAP kept (SNAP-Surface 488); label: 3' end held by stalled T7 RNA polymerase
Overview of recorded Kd for various binders
measure: Kd (nM)

target 2 MT 5'PFS UAA 3'PFS UCC (mixed) RNA 1: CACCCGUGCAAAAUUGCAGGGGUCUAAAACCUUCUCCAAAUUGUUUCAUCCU RNA 2: GGGAAUGGAUCCACAUCUACGAAUUCUAAAGGAUGAAACAAUUUGGAGAAGUCCAGAUCGGAAGAGCACACGU: 11.8
target 1 MT 5'PFS AGA 3'PFS UAG (mixed) RNA 1: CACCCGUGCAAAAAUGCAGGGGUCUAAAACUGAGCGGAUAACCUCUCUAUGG RNA 2: GGGAAUGGAUCCACAUCUACGAAUUCAGACCAUAGAGAGGUUAUCCGCUCAUAGAGAUCGGAAGAGCACACGU: 35.5
target 3 insA 3' of 14,insU 3' of 4 (mixed) RNA 1: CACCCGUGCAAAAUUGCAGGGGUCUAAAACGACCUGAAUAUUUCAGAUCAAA RNA 2: GGGAAUGGAUCCACAUCUACGAAUUCGUUUUUGAUCUGAAAAUAUUCAGUGUCUGCAGAUCGGAAGAGCACACGU: 43.5
target 1 C7G,A16U (mixed) RNA 1: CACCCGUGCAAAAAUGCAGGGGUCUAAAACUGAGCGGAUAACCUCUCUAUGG RNA 2: GGGAAUGGAUCCACAUCUACGAAUUCGUACCAUAGUGAGGUUAUGCGCUCACCGAGAUCGGAAGAGCACACGU: 53
target 1 MT 5'PFS GGC 3'PFS UUU (mixed) RNA 1: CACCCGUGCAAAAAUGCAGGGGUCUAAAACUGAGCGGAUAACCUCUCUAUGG RNA 2: GGGAAUGGAUCCACAUCUACGAAUUCGGCCCAUAGAGAGGUUAUCCGCUCAUUUAGAUCGGAAGAGCACACGU: 11.3
target 3 insC 3' of 5,insA 3' of 4 (mixed) RNA 1: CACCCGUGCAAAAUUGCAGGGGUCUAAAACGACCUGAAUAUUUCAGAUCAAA RNA 2: GGGAAUGGAUCCACAUCUACGAAUUCGUUUUUGAUCUGAAAUAUUCACGAGUCUGCAGAUCGGAAGAGCACACGU: 9.8
target 1 insC 3' of 22,insA 3' of 4 (mixed) RNA 1: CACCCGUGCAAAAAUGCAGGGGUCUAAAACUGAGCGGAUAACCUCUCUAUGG RNA 2: GGGAAUGGAUCCACAUCUACGAAUUCGUACCCAUAGAGAGGUUAUCCGCAUCACCGAGAUCGGAAGAGCACACGU: 15.9
target 1 C7U,A9U (mixed) RNA 1: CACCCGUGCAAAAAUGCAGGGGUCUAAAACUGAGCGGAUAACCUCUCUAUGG RNA 2: GGGAAUGGAUCCACAUCUACGAAUUCGUACCAUAGAGAGGUUUUUCGCUCACCGAGAUCGGAAGAGCACACGU: 6.3
